- Target Or System: CBL-B (residues 36-427) (Homo sapiens, UniProt Q13191)
- Construct: Purified CBL-B (residues 36-427) and C-CBL (residues 46-435) proteins from baculovirus-infected insect cells; made in house; host or cells: baculovirus-infected insect cells
- Protocol Summary: Ligand Displacement Assay (LDA), HTRF competitive binding against BODIPY-labeled fluorescent tracer, CBL-B
- Assay Setup: geometric mean of the number of tests, read-out: CBL-B Ki (nM) GMean
Each entry below carries its reported Ki.
// note: answer is a bare numeric in nM

Task item: Answer with the recorded Ki for the molecule listed here: CC(C)NC(C)c1nc(C(F)(F)F)cc2c(-c3cccc([C@H](c4nncn4C)C4CCC4)c3)n[nH]c12 (single isomer, unassigned) [Example C35]
Reply: 3.1

Task item: Answer with the recorded Ki for the molecule listed here: Cn1cnnc1CC1(c2cccc(-c3n[nH]c4cnc(C(F)(F)F)cc34)c2)COC1 [Example B1]
Reply: 62.7
